Each recorded value in this set is attributed to patent US5106863A.

Target: H^+ /K^+ ATPase (Oryctolagus cuniculus, UniProt P27112)
Construct: microsomes prepared from a crude homogenate of rabbit gastric mucosa using differential centrifugation
Sequence (P27112 2-1035 limits assumed): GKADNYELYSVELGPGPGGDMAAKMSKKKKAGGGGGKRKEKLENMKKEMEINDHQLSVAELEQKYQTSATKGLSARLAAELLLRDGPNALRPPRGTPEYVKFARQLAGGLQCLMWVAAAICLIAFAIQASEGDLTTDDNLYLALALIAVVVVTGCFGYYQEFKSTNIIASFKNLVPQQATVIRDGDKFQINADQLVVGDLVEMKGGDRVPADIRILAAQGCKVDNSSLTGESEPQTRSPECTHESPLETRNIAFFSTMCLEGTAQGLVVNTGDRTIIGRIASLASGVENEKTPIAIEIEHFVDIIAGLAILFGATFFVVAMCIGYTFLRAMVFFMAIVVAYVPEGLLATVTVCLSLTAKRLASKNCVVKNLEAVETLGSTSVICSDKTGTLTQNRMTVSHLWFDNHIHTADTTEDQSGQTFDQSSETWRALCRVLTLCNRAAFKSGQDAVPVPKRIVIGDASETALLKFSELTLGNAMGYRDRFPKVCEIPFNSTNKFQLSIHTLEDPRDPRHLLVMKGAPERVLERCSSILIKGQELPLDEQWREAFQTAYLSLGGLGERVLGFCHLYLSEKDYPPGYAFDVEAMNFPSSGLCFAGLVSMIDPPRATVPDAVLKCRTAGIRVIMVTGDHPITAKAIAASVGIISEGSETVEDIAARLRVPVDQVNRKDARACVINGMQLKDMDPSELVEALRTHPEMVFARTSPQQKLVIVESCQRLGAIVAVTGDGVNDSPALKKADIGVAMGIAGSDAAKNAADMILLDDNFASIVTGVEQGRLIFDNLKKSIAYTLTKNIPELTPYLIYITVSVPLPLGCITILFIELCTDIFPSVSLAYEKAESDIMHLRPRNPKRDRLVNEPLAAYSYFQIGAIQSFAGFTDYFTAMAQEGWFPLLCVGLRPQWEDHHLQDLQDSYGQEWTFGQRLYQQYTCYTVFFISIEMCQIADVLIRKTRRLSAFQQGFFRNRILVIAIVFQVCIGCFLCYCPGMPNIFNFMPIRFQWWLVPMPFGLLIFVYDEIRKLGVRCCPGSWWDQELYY
Sequence (P18597 whole entry partner): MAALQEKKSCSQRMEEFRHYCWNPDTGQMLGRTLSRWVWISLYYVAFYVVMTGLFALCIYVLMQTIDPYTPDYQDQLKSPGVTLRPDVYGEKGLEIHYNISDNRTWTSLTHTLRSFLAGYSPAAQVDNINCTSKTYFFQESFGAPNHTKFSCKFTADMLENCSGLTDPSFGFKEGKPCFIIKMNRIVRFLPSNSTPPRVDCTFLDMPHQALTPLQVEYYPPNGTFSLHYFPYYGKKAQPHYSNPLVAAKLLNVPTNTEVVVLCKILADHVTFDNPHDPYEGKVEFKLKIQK
Assay: Isolated H^+ /K^+ ATPase Assay: inhibition of K+ stimulated response in vesicular membranes from rabbit gastric mucosa
Details: 10 min preincubation, 15 min at 37° C.
attribute-measured: IC50 (µM)

Solved cases (3 shown):
{"compound": "CC(C)=CCC/C(C)=C/Cn1c(CO)nc2ccccc21", "tested-on": "H^+ /K^+ ATPase (Oryctolagus cuniculus, UniProt P27112)", "unit-abbreviation": "µM", "IC50": 15}
{"compound": "CC(C)=CCC/C(C)=C/CSc1nc2cc(Cl)ccc2[nH]1", "tested-on": "H^+ /K^+ ATPase (Oryctolagus cuniculus, UniProt P27112)", "unit-abbreviation": "µM", "IC50": 5}
{"compound": "CSc1ccc(-c2nc3ccccc3n2C/C=C(\\C)CCC=C(C)C)cc1", "tested-on": "H^+ /K^+ ATPase (Oryctolagus cuniculus, UniProt P27112)", "unit-abbreviation": "µM", "IC50": 0.86}

(A) COc1c(C)cnc(Cn2c(SCC[C@@H](C)CCC=C(C)C)nc3ccccc32)c1C [Example 9, Monooxalate]
(B) CC(C)=CCCC(C)CC[S+]([O-])c1nc2ccccc2[nH]1 (single isomer, unassigned; (+)) [Example 8, Monooxalate]
## Task Endpoint returns whichever of A and B has the numerically higher IC50. Which one? Tell me its label.
## Result B

----------
Target: H^+ /K^+ ATPase (Oryctolagus cuniculus)
Construct: microsomes prepared from a crude homogenate of rabbit gastric mucosa using differential centrifugation
Experiment: Isolated H^+ /K^+ ATPase Assay: inhibition of K+ stimulated response in vesicular membranes from rabbit gastric mucosa
Conditions: 10 min preincubation, 15 min at 37° C.
attribute-measured: IC50 (µM)

{"molecule": "COc1ccc2ncn(C/C=C(\\C)CCC=C(C)C)c2c1 [Example 18, Monooxalate]", "unit-abbreviation": "µM", "numeric-readout": 28}

(a) CC(C)=CCC/C(C)=C/CSCc1ccccn1 [Example 15, Hydrate]
(b) COc1c(C)cnc(Cn2c(SC/C=C(\C)CCC=C(C)C)nc3ccccc32)c1C [Example 5, Monooxalate Hemihydrate]
(c) CC(C)=CCC/C(C)=C/CSc1nc2cc(F)c(Cl)cc2[nH]1 [Example 3]
## Task Thanks in advance: please rank these 3 entries by IC50, highest to lowest. The response must list the labels following the requested ordering.
## Result a, c, b
